Provide the recorded 8OG:A repair function score for the entries that follow.
B1: library; numbered along this chain (parent)
chain: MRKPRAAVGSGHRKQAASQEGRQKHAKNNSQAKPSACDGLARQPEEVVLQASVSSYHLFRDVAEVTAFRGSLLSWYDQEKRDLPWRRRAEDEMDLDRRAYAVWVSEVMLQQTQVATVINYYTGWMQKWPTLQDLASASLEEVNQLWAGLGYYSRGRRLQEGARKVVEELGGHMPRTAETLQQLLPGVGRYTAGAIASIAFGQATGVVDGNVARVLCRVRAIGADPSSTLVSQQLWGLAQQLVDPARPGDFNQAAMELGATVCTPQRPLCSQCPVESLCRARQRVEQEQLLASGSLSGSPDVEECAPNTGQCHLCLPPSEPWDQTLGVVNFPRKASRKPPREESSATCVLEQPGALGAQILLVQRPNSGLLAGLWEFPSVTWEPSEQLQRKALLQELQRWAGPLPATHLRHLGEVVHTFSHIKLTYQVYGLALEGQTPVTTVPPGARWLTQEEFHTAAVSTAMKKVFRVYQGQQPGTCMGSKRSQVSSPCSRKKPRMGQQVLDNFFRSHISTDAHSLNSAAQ

- Variants of: B1
- experimentDescription: 8OG:A repair function score (normalized; synonymous = 0, nonsense = -1) (normalized log-likelihood score); higher = more repair activity (WT-like);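 further: cells sorted at 72 h after reporter transfection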
- experimentalSetup: with 8OG:A DNA repair reporter (GFP) in HEK-293 MUTYH KO cells
I'd appreciate a reply containing only the number, no unit.

Sample E375F — what was its 8OG:A repair function score?
-0.673

Requested field: 8OG:A repair function score. Item: D249T
-0.459

What value of 8OG:A repair function score has been recorded for this entry: Y121D
-0.798

Could you share which 8OG:A repair function score value was measured for W85Q ?
-1.14

Give the measured 8OG:A repair function score of G326M .
-0.634

Name the reported 8OG:A repair function score value associated with the variant H312Q
-0.0663

Fill blank: measured 8OG:A repair function score of the variant V47A is ____.
0.101

Entry S153N : reported 8OG:A repair function score = ?
-0.152

So what does the record say about 8OG:A repair function score for D502K ?
-0.00432

Which value of 8OG:A repair function score has been reported for R88H in the records?
0.0048

I would be grateful if you could share the reported 8OG:A repair function score for V301K .
-0.283

Fill in: 8OG:A repair function score of K464M is ___
-0.266

Need 8OG:A repair function score of R97D , thanks.
0.00527

Give the measured 8OG:A repair function score of F68Y .
-0.0444

Entry A461K : reported 8OG:A repair function score = ?
-0.813

Fill blank: measured 8OG:A repair function score of the variant W128D is ____.
-1.27

Quick one: 8OG:A repair function score of P365G ?
-0.137

Any idea what its 8OG:A repair function score is? The variant is A192L
-1.11

What does the record list as 8OG:A repair function score for E342Y ?
-0.0601

Looking for the measured 8OG:A repair function score of G429N , can you help?
-0.133

GET /values?readout=8OG:A repair function score&item= G497D
-0.0474

Tell me the measured 8OG:A repair function score of S486V , please.
-0.00598

Which 8OG:A repair function score value belongs to C477H ?
0.0203

Fill blank: measured 8OG:A repair function score of the variant R217G is ____.
-1.01

Name the reported 8OG:A repair function score value associated with the variant P402G
-0.274

Look up 8OG:A repair function score: L229C
-0.201

Query (variant): A192G ; field requested: 8OG:A repair function score
-0.105

What value of 8OG:A repair function score has been reported for the following variant? T455G
-0.211

Returns the measured 8OG:A repair function score for the input variant. Input: W235K
-0.51

Request the reported 8OG:A repair function score associated with G326H
-0.203

Item L370D has what recorded 8OG:A repair function score?
-1

Which 8OG:A repair function score is reported for this variant? Y425R
-0.476

Endpoint output: 8OG:A repair function score of Q239T . Value?
-0.143

So what does the record say about 8OG:A repair function score for K390I ?
-0.265

# query: 8OG:A repair function score of entry Q202C
0.0136

I am curious: what 8OG:A repair function score value has been reported for Q288I ?
-0.0801

Request the reported 8OG:A repair function score associated with E90W
-0.0857

GET /values?readout=8OG:A repair function score&item= R398T
-0.326

8OG:A repair function score for T476G ?
-0.0416

Form field: reported 8OG:A repair function score of V65T
-0.00404

# lookup: 8OG:A repair function score of R467P
-0.876

State the recorded 8OG:A repair function score for this entry: A405K
0.0168

Tell me the measured 8OG:A repair function score of R482L , please.
0.00831

// lookup 8OG:A repair function score for Q282A
-0.0281

Look up 8OG:A repair function score for this variant: M496G
-0.00643

// query 8OG:A repair function score value for entry G209V
-0.00522

Sample S74G — what was its 8OG:A repair function score?
-0.00226

Entry I359A has what 8OG:A repair function score?
-0.485

Could you tell me which 8OG:A repair function score is on file for I509T ?
0.026

I am curious: what 8OG:A repair function score value has been reported for R189W ?
-0.343

Fill in the blank: the reported 8OG:A repair function score of Q159C is ____.
0.0194

Need 8OG:A repair function score of S335L , thanks.
-0.0705

What value of 8OG:A repair function score has been reported for the following variant? A101L
-0.0936

Which 8OG:A repair function score value is on record for T511H ?
0.0209

8OG:A repair function score for P377D ?
-1.06

8OG:A repair function score for P320E ?
-0.11

I have this variant here, W128P , and I need its recorded 8OG:A repair function score.
-1.23

Entry under review: K127E . Reported 8OG:A repair function score?
-0.0486

Quick one: 8OG:A repair function score of V441P ?
-0.0374

// lookup 8OG:A repair function score for E375M
-0.229

# 8OG:A repair function score lookup, item E413G
-0.112

Could you tell me which 8OG:A repair function score is on file for R175I ?
-0.189

Requested field: 8OG:A repair function score. Item: V242T
-0.488

So what does the record say about 8OG:A repair function score for G148K ?
-0.475

I have this variant here, A115E , and I need its recorded 8OG:A repair function score.
0.0471

Which value of 8OG:A repair function score has been reported for L139Y in the records?
-0.0177

Requested field: 8OG:A repair function score. Item: R2C
-0.529

What does the record list as 8OG:A repair function score for H172Q ?
0.0285

What does the record list as 8OG:A repair function score for V214G ?
-0.9

Fill in the blank: the reported 8OG:A repair function score of V218L is ____.
-0.178

So what does the record say about 8OG:A repair function score for L134R ?
-1.01

Requested field: 8OG:A repair function score. Item: L448T
-0.164

Entry H312G : reported 8OG:A repair function score = ?
-0.0894

Name the reported 8OG:A repair function score value associated with the variant R163V
-0.0917

Suppose we examine the variant A199N ; what 8OG:A repair function score value has been reported?
-0.885

Look up 8OG:A repair function score for this variant: V348E
-0.925

Fill blank: measured 8OG:A repair function score of the variant A253E is ____.
-1.02

Consider the variant shown here: E342P What is its recorded 8OG:A repair function score?
-0.298
